experiment: Permeability of compound at 10 uM after 4 hrs by PAMPA; format: ADME; details: read-out: permeability
Quantity measured: Papp at 4 h, 10 µM (×10⁻⁶ cm/s)
State the answer as a number, implicitly in ×10⁻⁶ cm/s.

(Q) Return Papp at 4 h, 10 µM for the following compound: CCn1c2ccccc2c2cc(C3C(C(=O)OCC4CCCO4)=C(C)NC4=C3C(=O)CCC4)ccc21 (stereo unspecified)
(A) 2.46

---

target: Cholinesterase (Equus caballus, UniProt P81908)
Sequence (P81908 whole entry): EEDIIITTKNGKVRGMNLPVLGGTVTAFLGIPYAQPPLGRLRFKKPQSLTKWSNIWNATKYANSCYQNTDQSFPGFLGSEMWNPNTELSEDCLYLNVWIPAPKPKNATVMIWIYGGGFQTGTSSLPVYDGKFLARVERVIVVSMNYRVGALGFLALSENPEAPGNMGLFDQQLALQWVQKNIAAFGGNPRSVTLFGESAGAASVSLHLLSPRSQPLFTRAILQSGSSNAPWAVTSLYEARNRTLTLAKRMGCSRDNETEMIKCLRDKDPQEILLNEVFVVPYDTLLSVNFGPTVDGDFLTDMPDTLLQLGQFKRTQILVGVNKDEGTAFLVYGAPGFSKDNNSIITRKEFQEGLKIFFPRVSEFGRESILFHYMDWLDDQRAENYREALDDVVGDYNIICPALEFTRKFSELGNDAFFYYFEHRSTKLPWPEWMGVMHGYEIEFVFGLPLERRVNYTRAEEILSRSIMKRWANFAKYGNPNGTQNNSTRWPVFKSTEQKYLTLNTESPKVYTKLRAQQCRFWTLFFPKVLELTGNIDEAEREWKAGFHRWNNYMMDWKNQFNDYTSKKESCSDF
pIC50 for assorted compounds
// pIC50 here means minus log10 of the molar concentration (mol/L)

(Q) Return pIC50 for the following compound: Cc1ccccc1-n1nc(C)c(CN(CCN(C)C)Cc2ccccn2)c1C
(A) 4.72

---

Values of IC50 reported for Cholinesterase (Equus caballus, UniProt P81908) appear below.
State the answer as a number, implicitly in µM.

{"columns": ["Compound", "Val"],
 "data": [
  ["Cc1cc2nc([C@@H]3CCCN3C(=O)[C@H]3C[C@@H](O)CN3Cc3ccccc3)[nH]c2cc1C", 46.8],
  ["CCn1c2ccccc2c2cc(C3C(C(=O)OCC4CCCO4)=C(C)NC4=C3C(=O)CCC4)ccc21 (centres undefined)", 0.763],
  ["Cc1cccc(C2(O)CCN(Cc3c(-c4cccs4)[nH]c4ncccc34)CC2)c1", 48.9]
]}

Please find the next compound below.
(Q) Return IC50 for the following compound: CCn1c2ccccc2c2cc([C@@H]3C(C(=O)OCCOC)=C(C)NC4=C3C(=O)CCC4)ccc21
(A) 9.72
